# Tgt: purified bovine adrenal G6PDH (Bos taurus, UniProt F1MMK2)
# Construct: full-length, wild type, no tag
# Sequence (F1MMK2 31-70): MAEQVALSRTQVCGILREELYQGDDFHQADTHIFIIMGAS
# Sequence (F1MMK2 101-575): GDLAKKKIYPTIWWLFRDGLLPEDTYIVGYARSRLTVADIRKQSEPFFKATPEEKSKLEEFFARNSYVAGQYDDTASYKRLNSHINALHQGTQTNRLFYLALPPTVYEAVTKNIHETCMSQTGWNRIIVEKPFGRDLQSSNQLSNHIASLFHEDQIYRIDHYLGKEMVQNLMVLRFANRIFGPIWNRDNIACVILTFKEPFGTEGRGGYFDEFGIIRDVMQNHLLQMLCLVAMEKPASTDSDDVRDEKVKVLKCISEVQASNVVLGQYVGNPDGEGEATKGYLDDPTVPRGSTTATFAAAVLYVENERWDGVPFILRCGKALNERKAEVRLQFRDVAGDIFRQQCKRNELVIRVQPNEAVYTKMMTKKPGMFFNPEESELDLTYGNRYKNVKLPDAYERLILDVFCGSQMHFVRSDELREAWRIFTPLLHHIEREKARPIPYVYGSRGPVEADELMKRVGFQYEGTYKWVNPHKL
# Assay info: Inhibition of purified bovine adrenal G6PDH
# Type: biochemical
# Condition set: Conc. 10 μm; read-out: Percent Inhibition (G6PDH)
Observation type: inhibition at 10 µM (%)
Record the value in %, omitting the unit from your answer.

Data request: Field: inhibition at 10 µM (purified bovine adrenal G6PDH (Bos taurus, UniProt F1MMK2)). Entry: CC[C@H]1CC[C@@]2(C)C(=CC[C@@H]3[C@@H]2CC[C@]2(C)C(=O)CC[C@@H]32)C1 [Compound 13]
Data returned: 73

Data request: Moving on to C[C@@H]1[C@H](O)CC[C@@]2(C)[C@H]1CC[C@@H]1[C@@H]2CC[C@]2(C)C(=O)CC[C@@H]12 [Compound 11]
Data returned: 35

Data request: Moving on to C[C@]12CCCCC1=CC[C@@H]1[C@@H]2CC[C@]2(C)C(=O)CC[C@@H]12 [Compound 14]
Data returned: 75

Data request: Moving on to CCCC[C@H]1CC[C@@]2(C)C(=CC[C@@H]3[C@@H]2CC[C@]2(C)C(=O)CC[C@@H]32)C1 [Compound 17]
Data returned: 60

---

# Tgt: purified bovine adrenal G6PDH (Bos taurus, UniProt F1MMK2)
# Construct: full-length, wild type, no tag
# Assay info: Inhibition of purified bovine adrenal G6PDH
# Assay type: biochemical
# Condition set: Table 3; DHEA = 1×
Observation type: G6PDH Inhibition relative to DHEA

Data request: Using the record for C[C@H]1CC[C@@]2(C)C(=CC[C@@H]3[C@@H]2CC[C@]2(C)C(=O)[C@H](O)C[C@@H]32)C1 [drawing 89] , report its G6PDH Inhibition relative to DHEA.
Data returned: ~ 2 ×

Data request: Moving on to CC[C@H]1CC[C@@]2(C)C(=CC[C@@H]3[C@@H]2CC[C@]2(C)C(=O)CC[C@@H]32)C1 [drawing 91]
Data returned: ~ 1.5 ×

Data request: Moving on to C[C@@H]1C[C@@]2(C)C(=CC[C@@H]3[C@@H]2CC[C@]2(C)C(=O)CC[C@@H]32)C[C@H]1O
Data returned: ~ 1 ×

Data request: Moving on to C[C@]12CC[C@H](Cl)CC1=CC[C@@H]1[C@@H]2CC[C@]2(C)C(=O)CC[C@@H]12 [drawing 90]
Data returned: 0.5 ×

Data request: Moving on to C[C@H]1CC[C@@]2(C)C(=CC[C@@H]3[C@@H]2CC[C@]2(C)C(=O)[C@H](F)C[C@@H]32)C1 [drawing 94]
Data returned: 5-10 ×

Data request: Moving on to CCCC[C@H]1CC[C@@]2(C)C(=CC[C@@H]3[C@@H]2CC[C@]2(C)C(=O)CC[C@@H]32)C1 [drawing 92]
Data returned: ~ 2 ×

Data request: Moving on to C[C@]12CCCC[C@@H]1CC[C@@H]1[C@@H]2CC[C@]2(C)C(=O)CC[C@@H]12 [drawing 86]
Data returned: > 2 ×

Data request: Moving on to C[C@]12CC[C@H](O)C[C@@H]1CC[C@@H]1[C@@H]2CC[C@]2(C)C(=O)CC[C@@H]12 [drawing 85]
Data returned: ~ 1.5 ×

Data request: Moving on to C[C@H]1CC[C@@]2(C)C(=CC[C@@H]3[C@@H]2CC[C@]2(C)C(=O)CC[C@@H]32)C1 [drawing 87]
Data returned: ~ 1 ×

Data request: Moving on to C[C@H]1CC[C@@]2(C)C(=CC[C@@H]3[C@@H]2CC[C@]2(C)C(=O)[C@H](C)C[C@@H]32)C1 [drawing 88]
Data returned: ~ 0.5 ×

---

# Tgt: purified bovine adrenal G6PDH (Bos taurus)
# Construct: full-length, wild type, no tag
# Assay info: Inhibition of purified bovine adrenal G6PDH
# Assay type: biochemical
# Condition set: Conc. 1 μm; read-out: Percent Inhibition (G6PDH)
Categorize each record by its inhibition at 1 µM using lower band: < 40%; central band: ≥ 40% and < 60%; upper band: ≥ 60%

Data request: Into which bin does this molecule go? C[C@H]1CC[C@@]2(C)C(=CC[C@@H]3[C@@H]2CC[C@]2(C)C(=O)[C@H](C)C[C@@H]32)C1
Data returned: lower band

Data request: Moving on to C[C@]12CC[C@H](O)C[C@@H]1CC[C@@H]1[C@@H]2CC[C@]2(C)C(=O)CC[C@@H]12
Data returned: upper band

Data request: Moving on to CC1=C2C[C@@H](O)CC[C@]2(C)[C@H]2CC[C@]3(C)C(=O)CC[C@H]3[C@@H]2C1
Data returned: lower band

Data request: Moving on to C[C@H]1CC[C@@]2(C)C(=CC[C@@H]3[C@@H]2CC[C@]2(C)C(=O)[C@](C)(F)C[C@@H]32)C1
Data returned: central band

Data request: Moving on to C[C@]12CCCC[C@@H]1CC[C@@H]1[C@@H]2CC[C@]2(C)C(=O)CC[C@@H]12
Data returned: upper band

Data request: Moving on to C[C@]12CCCCC1=CC[C@@H]1[C@@H]2CC[C@]2(C)C(=O)CC[C@@H]12
Data returned: lower band

Data request: Moving on to CCCC[C@H]1CC[C@@]2(C)C(=CC[C@@H]3[C@@H]2CC[C@]2(C)C(=O)CC[C@@H]32)C1
Data returned: central band

Data request: Moving on to C[C@H]1C2=CC[C@@H]3[C@H](CC[C@]4(C)C(=O)CC[C@@H]34)[C@@]2(C)CC[C@@H]1O [Compound 11a]
Data returned: upper band

Data request: Moving on to C[C@H]1CC[C@@]2(C)C(=CC[C@@H]3[C@@H]2CC[C@]2(C)C(=O)[C@H](F)C[C@@H]32)C1
Data returned: central band

Data request: Moving on to CC[C@H]1CC[C@@]2(C)C(=CC[C@@H]3[C@@H]2CC[C@]2(C)C(=O)CC[C@@H]32)C1
Data returned: central band

Data request: Moving on to C[C@H]1CC[C@@]2(C)C(=CC[C@@H]3[C@@H]2CC[C@]2(C)C(=O)[C@H](O)C[C@@H]32)C1
Data returned: lower band

Data request: Moving on to C[C@]12CC[C@H](O)CC1=CC[C@@H]1[C@@H]2CC[C@]2(C)C(=O)CC[C@@H]12 [DHEA, 3β-Hydroxy-5-androst-en-17-one, reference compound]
Data returned: lower band

---

# Tgt: purified bovine adrenal G6PDH (Bos taurus, UniProt F1MMK2)
# Construct: full-length, wild type, no tag
# Assay info: Inhibition of purified bovine adrenal G6PDH
# Format: biochemical
# Condition set: Conc. 10 μm; read-out: Percent Inhibition (G6PDH)
Field: inhibition at 10 µM. Provide a value for each of the compounds that follow.
Record the value in %, omitting the unit from your answer.

Data request: Using the record for C[C@]12CC[C@H](O)CC1=CC[C@@H]1[C@@H]2CC[C@]2(C)C(=O)CC[C@@H]12 [DHEA, 3β-Hydroxy-5-androst-en-17-one, reference compound] , report its inhibition at 10 µM.
Data returned: 51

Data request: Moving on to CC1=C2C[C@@H](O)CC[C@]2(C)[C@H]2CC[C@]3(C)C(=O)CC[C@H]3[C@@H]2C1
Data returned: 45

Data request: Moving on to C[C@]12CC[C@H](F)CC1=CC[C@@H]1[C@@H]2CC[C@]2(C)C(=O)CC[C@@H]12
Data returned: 22

Data request: Moving on to C[C@]12CC[C@H](O)CC1=CC[C@@H]1[C@@H]2CC[C@]2(C)C(=O)[C@H](Br)C[C@@H]12
Data returned: 74

Data request: Moving on to CC1(C)C2=CC[C@@H]3[C@H](CC[C@]4(C)C(=O)CC[C@@H]34)[C@@]2(C)CC[C@@H]1O
Data returned: 48

Data request: Moving on to C[C@]12CC[C@H](O)C[C@@H]1CC[C@@H]1[C@@H]2CC[C@]2(C)C(=O)CC[C@@H]12
Data returned: 82

Data request: Moving on to C[C@]12CC[C@H](O)C[C@@H]1CC[C@@H]1[C@@H]2CC[C@]2(C)C(=O)[C@H](Cl)C[C@@H]12
Data returned: 72

---

# Tgt: purified bovine adrenal G6PDH (Bos taurus, UniProt F1MMK2)
# Construct: full-length, wild type, no tag
# Assay info: Inhibition of purified bovine adrenal G6PDH
# Assay type: biochemical
# Condition set: Conc. 10 μm; read-out: Percent Inhibition (G6PDH)
Observation type: inhibition at 10 µM (%)
Record the value in %, omitting the unit from your answer.

Data request: Using the record for C[C@H]1CC[C@@]2(C)C(=CC[C@@H]3[C@@H]2CC[C@]2(C)C(=O)[C@](C)(F)C[C@@H]32)C1 [Compound 22] , report its inhibition at 10 µM.
Data returned: 65

Data request: Moving on to C[C@]12CC[C@H](O)C[C@@H]1CC[C@@H]1[C@@H]2CC[C@]2(C)C(=O)[C@H](Br)C[C@@H]12 [Compound 4]
Data returned: 90

Data request: Moving on to C[C@]12CCCC[C@@H]1CC[C@@H]1[C@@H]2CC[C@]2(C)C(=O)CC[C@@H]12 [Compound 3]
Data returned: 80

Data request: Moving on to C[C@H]1C2=CC[C@@H]3[C@H](CC[C@]4(C)C(=O)CC[C@@H]34)[C@@]2(C)CC[C@@H]1O [Compound 11a]
Data returned: 87

Data request: Moving on to C[C@H]1CC[C@@]2(C)C(=CC[C@@H]3[C@@H]2CC[C@]2(C)C(=O)[C@H](C)C[C@@H]32)C1 [Compound 21]
Data returned: 48

Data request: Moving on to C[C@H]1CC[C@@]2(C)C(=CC[C@@H]3[C@@H]2CC[C@]2(C)C(=O)[C@H](F)C[C@@H]32)C1 [Compound 20]
Data returned: 46

Data request: Moving on to C[C@]12CC[C@H](O)C[C@@H]1CC[C@@H]1[C@@H]2CC[C@]2(C)C(=O)[C@H](I)C[C@@H]12 [Compound 7]
Data returned: 51

Data request: Moving on to C[C@]12CC[C@@H](O)C[C@@H]1CC[C@@H]1[C@@H]2CC[C@]2(C)C(=O)CC[C@@H]12 [Compound 10]
Data returned: 35

Data request: Moving on to C[C@]12CC[C@H](O)C[C@@H]1CC[C@@H]1[C@@H]2CC[C@]2(C)C(=O)[C@H](F)C[C@@H]12 [Compound 8]
Data returned: 66

Data request: Moving on to C[C@H]1CC[C@@]2(C)C(=CC[C@@H]3[C@@H]2CC[C@]2(C)C(=O)[C@H](O)C[C@@H]32)C1 [Compound 19]
Data returned: 64

Data request: Moving on to C[C@H]1CC[C@@]2(C)C(=CC[C@@H]3[C@@H]2CC[C@]2(C)C(=O)CC[C@@H]32)C1 [Compound 16, 3β-methyl-5-androsten-17-one]
Data returned: 53
